Recorded values, source ChEMBL document CHEMBL3407339.

Would you mind telling me the reported fold change (FC) of each entry?
System: Salmonella typhimurium
Assay: Mutagenicity in Salmonella typhimurium TA100 at 2.5 mg/ml after 48 hrs by AMES MPF assay in presence of Sprague-Dawley rat liver microsomal S9 fraction relative to baseline
Assay type: toxicity, organism-based
Settings: salmonella enterica subsp. enterica serovar typhimurium

Q: What value of fold change (FC) has been recorded for this entry: Fc1ccc(C2CC(c3ccc(Cl)s3)=NN2c2nc(-c3ccc(Br)cc3)cs2)cc1 (stereo unspecified)
A: 3.92

Q: What value of fold change (FC) has been recorded for this entry: Cc1ccc(C2=NN(c3nc(-c4ccc(C#N)cc4)cs3)C(c3ccc(F)cc3)C2)s1 (stereo unspecified)
A: 0.55

Q: What value of fold change (FC) has been recorded for this entry: Fc1ccc(C2CC(c3ccc(Cl)s3)=NN2c2nc(-c3ccc(C(F)(F)F)cc3)cs2)cc1 (stereo unspecified)
A: 2.31

Q: What value of fold change (FC) has been recorded for this entry: Fc1ccc(C2CC(c3ccc(Cl)s3)=NN2c2nc(-c3ccc(Cl)cc3)cs2)cc1 (stereo unspecified)
A: 3

Q: What value of fold change (FC) has been recorded for this entry: Fc1ccc(C2CC(c3ccc(Cl)s3)=NN2c2nc(-c3ccccc3)cs2)cc1 (stereo unspecified)
A: 3.46

Q: What value of fold change (FC) has been recorded for this entry: Cc1ccc(C2=NN(c3nc(-c4ccc(S(C)(=O)=O)cc4)cs3)C(c3ccc(F)cc3)C2)s1 (stereo unspecified)
A: 1.26
